Listing of recorded PBMC pSTAT3 IC50 by entry.
- system.name: T1, interleukin-23 receptor (IL-23R), Q5VWK5
- T1 chain: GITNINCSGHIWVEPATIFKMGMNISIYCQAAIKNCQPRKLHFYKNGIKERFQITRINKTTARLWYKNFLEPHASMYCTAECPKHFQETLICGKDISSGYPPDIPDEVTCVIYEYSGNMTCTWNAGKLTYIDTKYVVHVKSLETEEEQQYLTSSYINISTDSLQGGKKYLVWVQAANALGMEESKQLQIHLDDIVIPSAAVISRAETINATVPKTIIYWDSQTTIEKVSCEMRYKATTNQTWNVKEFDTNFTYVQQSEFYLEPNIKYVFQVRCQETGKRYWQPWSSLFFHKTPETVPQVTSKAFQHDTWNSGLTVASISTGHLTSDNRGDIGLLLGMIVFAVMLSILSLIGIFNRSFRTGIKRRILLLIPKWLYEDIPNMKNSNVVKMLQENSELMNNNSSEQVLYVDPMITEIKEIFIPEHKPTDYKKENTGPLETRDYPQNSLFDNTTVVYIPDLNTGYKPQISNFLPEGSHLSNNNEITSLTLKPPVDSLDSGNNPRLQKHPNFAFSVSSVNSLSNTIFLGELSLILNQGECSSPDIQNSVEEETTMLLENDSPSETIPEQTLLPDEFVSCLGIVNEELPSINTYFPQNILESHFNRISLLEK
- assay.protocol: cell-based or functional assay
Positions of bridges follow the written chain, without caps; N, C: chain ends. Non-standard residues stand in square brackets, D forms with d. No end group written: not given here. Trp(7-Me) = Cc1cccc2c(C[C@H](N)C(=O)O)c[nH]c12; 3Pal = N[C@@H](Cc1cccnc1)C(=O)O; NMeK = CN[C@@H](CCCCN)C(=O)O; Pen = CC(C)(S)[C@H](N)C(=O)O; lipid = not defined here; Thp = NC1(C(=O)O)CCOCC1; Sar = CNCC(=O)O

binder="[(R)‑3‑carboxy‑2‑(4-(((R)-5-carboxy-5-hydrazineylpentyl)amino)-4-oxobutanamido)‑N,N,N‑trimethylpropan‑1‑aminium][Pen]NT[Trp(7-Me)]K(Ac)[Pen][2‑amino‑3‑(4-(2-aminoethoxy)phenyl)propanoic acid][2‑amino‑3‑(6-hydroxynaphthalen-2-yl)propanoic acid][Thp]EN[3Pal][Sar] (disulfide 2-7 (inferred); ends not checked) [SEQ ID NO: 263]" value_observed="< 1 nM"

Then this binder:
For [(R)‑3‑carboxy‑2‑(4-(((R)-5-carboxy-5-hydrazineylpentyl)amino)-4-oxobutanamido)‑N,N,N‑trimethylpropan‑1‑aminium][Pen]NT[Trp(7-Me)]K(Ac)[Pen][2‑amino‑3‑(4-(2-aminoethoxy)phenyl)propanoic acid][2‑amino‑3‑(6-hydroxynaphthalen-2-yl)propanoic acid][Thp]EN[3Pal][NMeK](lipid) (disulfide 2-7 (inferred); ends not checked; also: X14: lipidated N-methyl-lysine, lipid and methyl place not given here) [SEQ ID NO: 167] , what is its reported PBMC pSTAT3 IC50?
< 1 nM

Values compiled from patent US20240279281A1.
